# experimental_system: PI3Kβ (p110β)
# experiment_description: ADP-Glo kinase assay for PI3Kβ
# test_parameters: read-out: IC50 of kinase inhibitory activity, PI3K β
parameter: IC50

chemical_structure: CC[C@@H]1COc2c(-c3ccc(OCCCN4CCCCC4)nc3)c(F)cc3ncc4c(c23)n1c(=O)n4C
assay_value: > 10 µM

###

# Tested on: ATM-phosphorylated KAP1
# experiment_description: Intracellular ATM-phosphorylated KAP1 level, ICW assay in MCF7 cells
# Assay type: cell-based, Human
# test_parameters: Homo sapiens, light or radiation study; MCF7 cells, 2 h compound, 10 Gy irradiation, further 1 h; read-out: pKAP1 IC50
The following compounds are listed with their measured IC50 values.

compound: CC(C)n1c(=O)n(C)c2cnc3cc(F)c(-c4ccc(OCCCN5CCCCC5)nc4)cc3c21 [AZD1390, reference compound]
IC50, pM: 450

compound: Cn1c(=O)n2c3c4c(c(-c5ccc(OCCCN6CCCCC6)nc5)ccc4ncc31)OCC21CC1 [Example A-68]
IC50, pM: 900

compound: C[C@H]1COc2c(-c3ccc(OCCCN4CCC5(CC4)COC5)nc3)ccc3ncc4c(c23)n1c(=O)n4C [Example A-184]
IC50, pM: 330

compound: Cn1c(=O)n2c3c4c(c(-c5ccc(OCCCN6CCCCC6)nc5)c(F)cc4ncc31)NCC2(C)C [Example A-193]
IC50, pM: 1750

compound: C[C@H]1COc2c(-c3ccc(OCCCN4CCC5(CC4)CC5)nc3)ccc3ncc4c(c23)n1c(=O)n4C [Example A-183]
IC50, pM: 220

compound: Cn1c(=O)n2c3c4c(c(-c5ccc(OCCCN6CCCCC6)nc5)c(F)cc4ncc31)NCC21CCC1 [Example A-192]
IC50, pM: 1440

compound: C[C@H]1COc2c(-c3ccc(OCCCN4CCCCC4)nc3)ccc3ncc4c(c23)n1c(=O)n4C [Example A-177]
IC50, pM: 610

###

# experimental_system: ATM (Homo sapiens (Human), UniProt Q13315)
# Sequence (Q13315 whole entry): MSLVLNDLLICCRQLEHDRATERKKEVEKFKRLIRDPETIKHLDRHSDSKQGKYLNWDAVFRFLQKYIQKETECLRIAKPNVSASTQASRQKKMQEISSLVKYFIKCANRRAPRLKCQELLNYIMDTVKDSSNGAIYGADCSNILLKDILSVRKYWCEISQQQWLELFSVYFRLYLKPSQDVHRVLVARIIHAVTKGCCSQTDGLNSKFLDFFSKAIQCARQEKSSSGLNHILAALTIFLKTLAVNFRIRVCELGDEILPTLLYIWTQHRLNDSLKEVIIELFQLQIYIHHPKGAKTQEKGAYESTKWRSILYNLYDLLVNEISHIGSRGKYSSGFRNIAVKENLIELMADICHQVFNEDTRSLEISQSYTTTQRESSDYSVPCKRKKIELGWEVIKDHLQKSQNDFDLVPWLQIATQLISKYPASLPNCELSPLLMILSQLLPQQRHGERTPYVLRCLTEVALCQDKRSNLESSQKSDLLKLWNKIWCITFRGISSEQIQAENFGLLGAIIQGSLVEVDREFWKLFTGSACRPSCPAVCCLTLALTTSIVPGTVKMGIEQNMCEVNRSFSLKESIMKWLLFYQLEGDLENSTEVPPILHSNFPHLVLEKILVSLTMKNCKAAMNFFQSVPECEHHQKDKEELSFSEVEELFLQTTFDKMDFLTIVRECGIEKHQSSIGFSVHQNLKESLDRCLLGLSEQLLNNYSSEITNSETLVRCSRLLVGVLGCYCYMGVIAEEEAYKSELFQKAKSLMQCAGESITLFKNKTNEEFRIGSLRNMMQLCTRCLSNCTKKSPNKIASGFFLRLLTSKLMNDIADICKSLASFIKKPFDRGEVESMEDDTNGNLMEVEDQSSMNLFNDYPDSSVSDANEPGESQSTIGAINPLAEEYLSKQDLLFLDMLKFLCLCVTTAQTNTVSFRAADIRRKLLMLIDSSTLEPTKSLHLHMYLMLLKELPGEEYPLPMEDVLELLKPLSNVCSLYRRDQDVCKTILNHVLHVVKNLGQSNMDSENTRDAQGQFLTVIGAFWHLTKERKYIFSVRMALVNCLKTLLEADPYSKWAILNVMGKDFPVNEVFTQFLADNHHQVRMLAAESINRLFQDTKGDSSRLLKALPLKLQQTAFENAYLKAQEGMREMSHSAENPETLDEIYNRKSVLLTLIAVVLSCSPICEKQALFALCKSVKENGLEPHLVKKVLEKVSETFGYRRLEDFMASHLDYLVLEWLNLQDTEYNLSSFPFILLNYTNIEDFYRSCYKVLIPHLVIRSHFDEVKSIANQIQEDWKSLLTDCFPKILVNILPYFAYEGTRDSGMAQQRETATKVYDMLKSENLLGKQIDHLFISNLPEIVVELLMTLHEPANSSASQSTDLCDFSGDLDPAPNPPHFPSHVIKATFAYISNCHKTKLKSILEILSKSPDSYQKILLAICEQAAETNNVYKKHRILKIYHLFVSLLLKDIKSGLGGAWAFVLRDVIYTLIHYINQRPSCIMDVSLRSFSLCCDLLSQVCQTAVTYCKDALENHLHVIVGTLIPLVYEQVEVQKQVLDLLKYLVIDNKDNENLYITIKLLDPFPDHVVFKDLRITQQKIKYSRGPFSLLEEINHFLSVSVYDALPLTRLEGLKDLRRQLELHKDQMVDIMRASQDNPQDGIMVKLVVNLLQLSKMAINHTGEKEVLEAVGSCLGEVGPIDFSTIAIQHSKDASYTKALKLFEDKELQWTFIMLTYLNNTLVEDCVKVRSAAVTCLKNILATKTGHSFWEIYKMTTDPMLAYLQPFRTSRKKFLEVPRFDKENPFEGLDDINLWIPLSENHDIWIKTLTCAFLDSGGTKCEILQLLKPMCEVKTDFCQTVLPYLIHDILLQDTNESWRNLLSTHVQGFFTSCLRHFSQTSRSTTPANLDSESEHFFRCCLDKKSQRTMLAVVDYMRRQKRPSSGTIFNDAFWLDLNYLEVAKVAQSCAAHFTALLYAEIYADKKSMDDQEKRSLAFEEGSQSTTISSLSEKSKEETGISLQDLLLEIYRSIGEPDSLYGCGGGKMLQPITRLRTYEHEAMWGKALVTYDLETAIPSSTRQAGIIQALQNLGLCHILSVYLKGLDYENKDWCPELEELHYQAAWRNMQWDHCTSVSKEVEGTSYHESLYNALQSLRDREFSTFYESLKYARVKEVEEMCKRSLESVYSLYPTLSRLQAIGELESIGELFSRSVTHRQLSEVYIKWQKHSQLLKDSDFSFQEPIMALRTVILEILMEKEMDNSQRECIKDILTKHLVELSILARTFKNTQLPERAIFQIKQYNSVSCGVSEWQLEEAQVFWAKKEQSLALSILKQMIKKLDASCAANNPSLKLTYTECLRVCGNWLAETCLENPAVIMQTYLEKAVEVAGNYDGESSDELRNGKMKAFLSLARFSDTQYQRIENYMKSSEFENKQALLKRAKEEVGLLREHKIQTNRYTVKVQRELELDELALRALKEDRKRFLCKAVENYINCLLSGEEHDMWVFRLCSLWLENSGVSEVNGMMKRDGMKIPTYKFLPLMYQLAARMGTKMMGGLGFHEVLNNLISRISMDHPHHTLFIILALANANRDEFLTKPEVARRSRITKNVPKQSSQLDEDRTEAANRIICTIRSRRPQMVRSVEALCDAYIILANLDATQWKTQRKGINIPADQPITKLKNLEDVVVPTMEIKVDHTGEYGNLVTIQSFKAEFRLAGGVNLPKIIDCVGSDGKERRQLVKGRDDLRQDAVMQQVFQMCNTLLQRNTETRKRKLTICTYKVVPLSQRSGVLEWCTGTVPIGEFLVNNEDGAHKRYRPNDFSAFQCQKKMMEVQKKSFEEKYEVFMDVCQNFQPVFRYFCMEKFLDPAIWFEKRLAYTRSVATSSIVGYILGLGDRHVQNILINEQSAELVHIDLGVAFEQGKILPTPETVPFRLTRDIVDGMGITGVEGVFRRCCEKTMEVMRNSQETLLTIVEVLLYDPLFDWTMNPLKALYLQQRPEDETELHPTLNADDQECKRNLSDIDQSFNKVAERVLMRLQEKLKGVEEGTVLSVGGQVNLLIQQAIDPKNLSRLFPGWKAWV

compound: CC(C)n1c(=O)n(C)c2cnc3cc(F)c(-c4ccc(OCCCN5CCCCC5)nc4)cc3c21 [AZD1390, reference compound]
IC50: 0.2 nM
--
compound: Cn1c(=O)n2c3c4c(c(-c5ccc(OCCCN6CCCCC6)nc5)c(F)cc4ncc31)OC[C@@H]2Cc1ccccc1
IC50: 0.4 nM
--
compound: CC[C@H]1COc2c(-c3ccc(OCCCN(C)C)nc3)ccc3ncc4c(c23)n1c(=O)n4C
IC50: 0.38 nM
--
compound: Cn1c(=O)n2c3c4c(c(-c5ccc(OCCCN6CCCCC6)nc5)c(F)cc4ncc31)OCC2C1CC1 (stereo not shown)
IC50: 0.28 nM
--
compound: CC[C@H]1CNc2c(-c3ccc(OCCCN4CCCCC4)nc3)ccc3ncc4c(c23)n1c(=O)n4C
IC50: 0.54 nM
--
compound: Cn1c(=O)n2c3c4c(c(-c5ccc(OCCCN6CCCCC6)nc5)c(F)cc4ncc31)OC[C@H]2Cc1ccccc1
IC50: 0.42 nM
--
compound: C[C@H]1CNc2c(-c3ccc(OCCCN4CCCCC4)nc3)c(F)cc3ncc4c(c23)n1c(=O)n4C
IC50: 0.69 nM

###

# Tested on: Human glioblastoma cell line LN-18
# experiment_description: LN18 cell proliferation combined with radiotherapy (CTG assay);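 note: readout is CTG luminescence proliferation not KAP1 phosphorylation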
# Type: cell-based
# test_parameters: Homo sapiens, LN-18, light or radiation study; LN18 cells, 1 Gy irradiation 1 h after compound, 6 days, CTG
pIC50: −log10 of the molar value.
The following compounds are listed with their measured pIC50 values.
parameter: pIC50

compound: C[C@H]1COc2c(-c3ccc(OCCCN4CCCCC4)nc3)ccc3ncc4c(c23)n1c(=O)n4C
experimental_system: Human glioblastoma cell line LN-18
parameter: pIC50
assay_value: 8.28

compound: C[C@H]1COc2c(-c3ccc(OCCCN4CCC5(CC4)COC5)nc3)ccc3ncc4c(c23)n1c(=O)n4C
experimental_system: Human glioblastoma cell line LN-18
parameter: pIC50
assay_value: 8.42

compound: CC(C)n1c(=O)n(C)c2cnc3cc(F)c(-c4ccc(OCCCN5CCCCC5)nc4)cc3c21 [AZD1390, reference compound]
experimental_system: Human glioblastoma cell line LN-18
parameter: pIC50
assay_value: 8.55

compound: C[C@H]1COc2c(-c3ccc(OCCCN4CCC5(CC4)CC5)nc3)ccc3ncc4c(c23)n1c(=O)n4C
experimental_system: Human glioblastoma cell line LN-18
parameter: pIC50
assay_value: 8.86

compound: Cn1c(=O)n2c3c4c(c(-c5ccc(OCCCN6CCCCC6)nc5)ccc4ncc31)OCC21CC1
experimental_system: Human glioblastoma cell line LN-18
parameter: pIC50
assay_value: 8.17

compound: Cn1c(=O)n2c3c4c(c(-c5ccc(OCCCN6CCCCC6)nc5)c(F)cc4ncc31)NCC2(C)C
experimental_system: Human glioblastoma cell line LN-18
parameter: pIC50
assay_value: 8.00
